# Test system: HEK293
# Assay method text: Cytotoxicity in HEK293 cells assessed as cell viability at 100 uM measured after 20 to 24 hrs by Cell-Titer Blue fluorescence assay
# Format: cell-based
# Test parameters: human, hek293, 100 µM
Metric name: Activity

CCOc1ccc(CCC(=O)c2c(O)cc(O)c([C@@H]3O[C@H](CO)[C@@H](O)[C@H](O)[C@H]3O)c2O)cc1 : Non-Toxic
COc1ccc(CCC(=O)c2c(O)cc(O)cc2O)cc1 : Non-Toxic
O=C(CCc1ccccc1)c1c(O)cc(O)cc1O : Non-Toxic
COc1ccc(/C=C/C(=O)c2c(O)cc(O)cc2O)cc1 [4-METHOXYL-2',4',6'-TRIHYDROXYCHALCONE] : Non-Toxic

Please turn your attention to the following entry.
Prompt line: Activity for O=C(CCc1ccccc1)c1c(O)cc(O)c([C@@H]2O[C@H](CO)[C@@H](O)[C@H](O)[C@H]2O)c1O ?
Response line: Non-Toxic
